Recorded values, source PubChem BioAssay AID686978.

- PROCEDURE SUMMARY: qHTS for Inhibitors of human tyrosyl-DNA phosphodiesterase 1 (TDP1): qHTS in cells in absence of CPT; also: nearly all actives have a fitted effect of over 55% in size
- CONDITION DETAILS: DT40 Tdp1-/- hTDP1 cells, no CPT, ATP luminescence, 48 h
The whole screen tested about 420,000 compounds, of which about 64,000 (15%) were called active. Inconclusive results (about 27%) are left out. Calls follow the shape of the dose curve; as a rule, active = well fitted inhibition curve with a large enough effect; inconclusive = small, poorly fitted or top-dose-only effect; inactive = flat fitted curve, though single readings scatter. These entries were drawn from the full list.
Permitted responses: 1.0 (active), 0.0 (inactive)

Returns: the outcome recorded for `CCN1C(=O)[C@H]2[C@@H](c3ccc(C)cc3)N3C(=O)N(c4cccc(Br)c4)C(=O)[C@@]3(CC)[C@H]2C1=O` in this assay.
0.0

Hello, I am checking results. What call was entered for `O=C(O)c1ccc([N+](=O)[O-])cc1Sc1ccsc1` ?
0.0

Please indicate how the test categorized CCCCC12CN3CC(C)(CN(C1)C3c1ccc(O)c(OC)c1)C2=O (centres undefined) .
0.0

Entry CC(=O)N(CN1C(=O)C2C3C=CC(C3)C2C1=O)c1cccc(Cl)c1 (centres undefined) : call = ?
0.0

Recorded test call requested for `CC(C)(C)C(=O)COC(=O)c1cc(S(=O)(=O)N2CCCCC2)ccc1N1CCOCC1`
0.0

Please share the test call associated with `COC(=O)c1ccc([C@@H](O)[C@H](C)C(=O)CC(=O)OC(C)(C)C)cc1` .
0.0

Give the logged outcome of this assay for the following compound: `CCCCCCSc1ccc([C@@H]2[C@@H]3C(=O)N(CC)C(=O)[C@@H]3[C@]3(C(=O)OC)CCCCN23)cc1OC`
1.0

Please share the test call associated with `CCN1C(=O)[C@@H]2[C@@H](c3ccc(-c4ccccc4)cc3)N3CCCC[C@@]3(C(=O)OC)[C@@H]2C1=O` .
1.0

What did the test return for `CCCCn1c(N)c(N(CC(C)C)C(=O)c2ccc(Br)o2)c(=O)[nH]c1=O` ?
0.0

---

- PROCEDURE SUMMARY: qHTS for Inhibitors of human tyrosyl-DNA phosphodiesterase 1 (TDP1): qHTS in cells in absence of CPT; also: nearly all actives have a fitted effect of over 55% in size
- CONDITION DETAILS: DT40 Tdp1-/- hTDP1 cells, no CPT, ATP luminescence, 48 h
Out of some 420,000 compounds screened, about 64,000 (15%) were called active. About 27% were inconclusive and are not listed. Calls follow the shape of the dose curve; as a rule, active = well fitted inhibition curve with a large enough effect; inconclusive = small, poorly fitted or top-dose-only effect; inactive = flat fitted curve, though single readings scatter. A selection follows.
Give one outcome, nothing more. List: TRUE (active), FALSE (inactive)

Fill in: this test's call for `CC[C@]12c3[nH]c4ccc(Cl)cc4c3CCN1C(=O)[C@@H](CC(=O)NCCN1CCOCC1)C[C@@H]2C(=O)N1CCN(C(=O)C2CC2)CC1` is ___
FALSE

Per the records of this test, what outcome belongs to `Cc1ccc(S(=O)(=O)CC(=O)Nc2nnc(C)s2)cc1` ?
FALSE

Fill in: this test's call for CCCCC(CCC(=O)Nc1ccc(C(=O)OCC)cc1)C(=O)O (stereo not drawn) is ___
FALSE

Record lookup: outcome of this test for CC(NS(=O)(=O)c1ccccc1)c1n[nH]c(=S)n1-c1ccccc1 (stereo not drawn) ?
FALSE

Returns: the outcome recorded for `CCOC(=O)c1ccc(NC(=O)CCS(=O)(=O)c2ccc(C)cc2)cc1` in this assay.
TRUE

In this assay, the call recorded for `O=C(C[C@H]1C[C@H](C(=O)N2CCOCC2)[C@@]2(CCC3CCCC3)c3[nH]c4ccc(Cl)cc4c3CCN2C1=O)NCc1ccco1` was what?
TRUE

Can you look up the reported call for CC[C@]12c3[nH]c4ccc(OC)cc4c3CCN1C(=O)C(CC(=O)NCCN1CCOCC1)C[C@@H]2C(=O)N1CCN(C(=O)C2CC2)CC1 (stereo partly drawn) for me?
FALSE

Assay result, entry CC[C@]12c3[nH]c4ccc(OC)cc4c3CCN1C(=O)C(CC(=O)NCc1ccco1)C[C@@H]2C(=O)N1CCN(C(=O)C2CC2)CC1 (stereo partly drawn) — outcome?
FALSE
